The origin of these recorded values is patent US11840560B2.

# Procedure text: physchem
# Type: physicochemical
# Condition parameters: buffer, pH 7.4
*1 amine or outer side, *2 acyl side, *3 side chain or, on linkers, in order; H or OH if unused. Side-chain parts run from the residue outwards. [ ]: non-standard residue; d: D form. The star is where a group is joined. X1 = O=C(O)CCCCCCCCCCCCCCC(=O)N[C@@H](CCC(=O)NCCCC[C@H](NC(=O)CC[C@H](NC(=O)CCCCCCCCCCCCCCC(=O)O)C(=O)O)C(=O)*)C(=O)O; N(2-Aminoethyl)Gly = O=C(CN(CCN[*:3])[*:1])[*:2]; C18 diacid = O=C(O)CCCCCCCCCCCCCCCCC(=O)*; C16 diacid = O=C(O)CCCCCCCCCCCCCCC(=O)*; γGlu = O=C(O)[C@H](CCC(=O)[*:2])N[*:1]; εLys = N[C@@H](CCCCN[*:1])C(=O)[*:2]; AEEA = NCCOCCOCC(=O)O; Aib = CC(C)(N)C(=O)O; Sar = CNCC(=O)O
Measured quantity: half-life at 100 μM
Answer as a quantity: numeral, then unit.

For orientation, consider the following solved cases.
[[record]]
substance = "H-G[N(2-Aminoethyl)Gly]([γGlu-C16 diacid])Y[Aib]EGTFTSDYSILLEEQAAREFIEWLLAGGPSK([AEEA-AEEA-γGlu-C16 diacid])GAPPPS-OH [Compound 2]"
assay_result = "363 h"

[[record]]
substance = "H-K([γGlu-C18 diacid])[Sar]Y[Aib]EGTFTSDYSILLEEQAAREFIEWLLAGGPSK([εLys-εLys-γGlu-C18 diacid])GAPPPS-OH [Compound 15]"
assay_result = "127 h"

[[record]]
substance = "H-D[N(2-Aminoethyl)Gly]([γGlu-C16 diacid])Y[Aib]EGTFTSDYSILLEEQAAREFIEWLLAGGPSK([AEEA-AEEA-γGlu-C16 diacid])GAPPPS-OH [Compound 7]"
assay_result = "38 h"

[[record]]
substance = "H-P[N(2-Aminoethyl)Gly]([γGlu-C16 diacid])Y[Aib]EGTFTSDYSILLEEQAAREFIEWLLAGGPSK([AEEA-AEEA-γGlu-C16 diacid])GAPPPS-OH [Compound 6]"
assay_result = "440 h"

[[record]]
substance = "H-[dK]([εLys-γGlu-C16 diacid])[Sar]Y[Aib]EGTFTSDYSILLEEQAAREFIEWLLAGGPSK([AEEA-AEEA-γGlu-C16 diacid])GAPPPS-OH [Compound 11]"
assay_result = "182 h"

[[record]]
substance = "H-K([γGlu-C16 diacid])[Sar]Y[Aib]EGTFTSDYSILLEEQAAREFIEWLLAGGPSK([AEEA-AEEA-γGlu-C16 diacid])GAPPPS-OH [Compound 3]"
assay_result = "111 h"

[[record]]
substance = "H-K([Gly-γGlu-C16 diacid])[Sar]Y[Aib]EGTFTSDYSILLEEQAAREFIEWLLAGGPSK([AEEA-AEEA-γGlu-C16 diacid])GAPPPS-OH [Compound 9]"
assay_result = "132 h"

[[record]]
substance = "H-K([γGlu-C16 diacid])[Sar]Y[Aib]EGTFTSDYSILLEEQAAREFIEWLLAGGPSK([εLys-εLys-γGlu-C16 diacid])GAPPPS-OH [Compound 12]"
assay_result = "129 h"

[[record]]
substance = "H-K(X1)[Sar]Y[Aib]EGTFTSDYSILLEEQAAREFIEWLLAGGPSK([εLys-εLys-γGlu-C16 diacid])GAPPPS-OH [Compound 14]"
assay_result = "166 h"

[[record]]
substance = "H-[dK]([γGlu-C16 diacid])[Sar]Y[Aib]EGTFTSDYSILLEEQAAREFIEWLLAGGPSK([AEEA-AEEA-γGlu-C16 diacid])GAPPPS-OH [Compound 1]"
assay_result = "244 h"


Next, consider the following substance.
Which half-life at 100 μM value is on record for H-A[N(2-Aminoethyl)Gly]([γGlu-C16 diacid])Y[Aib]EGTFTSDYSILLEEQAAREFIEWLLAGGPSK([AEEA-AEEA-γGlu-C16 diacid])GAPPPS-OH [Compound 4] ?
97 h
